Reference source for all entries: ChEMBL document CHEMBL4265879

- measurement-description: Intrinsic clearance in human liver microsomes
- Type: ADME, microsome
- conditions: read-out: CLH
readout: log10(microsomal CLint) (log10 of the value in µL/min/mg)
All values: base-10 log of microsomal CLint in µL/min/mg.

Field: example entries. Status: answers known.
{"molecule": "COc1ncccc1C1(N2CCN(c3cccnc3)CC2)C(=O)N(S(=O)(=O)c2cccc3cccnc23)c2ccc(Cl)cc21 (centres undefined)", "log10(microsomal CLint)": 2.74}
{"molecule": "COc1ccccc1C1(N2CCN(c3cccnc3)CC2)C(=O)N(S(=O)(=O)c2ccccc2OC)c2ccc(Cl)cc21 (centres undefined)", "log10(microsomal CLint)": 1.97}
{"molecule": "CCOc1ccc(OC)cc1C1(N2CCN(c3ccncc3)CC2)C(=O)N(S(=O)(=O)c2ccc(OC)cc2OC)c2ccc(C#N)cc21 (centres undefined)", "log10(microsomal CLint)": 1.36}
{"molecule": "COc1ccc(S(=O)(=O)N2C(=O)C(c3cccnc3OC)(N3CCN(C)C(=O)[C@H]3C)c3cc(Cl)ccc32)c(OC)c1 (some centres undefined)", "log10(microsomal CLint)": 1.71}
{"molecule": "COc1ccc(S(=O)(=O)N2C(=O)C(c3cccnc3OC)(N3CCN(C)C(=O)C3)c3cc(Cl)ccc32)c(OC)c1 (centres undefined)", "log10(microsomal CLint)": 2.00}
{"molecule": "CCOc1nc(Cl)ccc1C1(N2CCN(c3ccncc3)CC2)C(=O)N(S(=O)(=O)c2ccc(OC)cc2OC)c2ccc(C#N)cc21 (centres undefined)", "log10(microsomal CLint)": 1.36}

For this molecule ( CCOc1nc(Cl)ccc1C1(N2CCN(c3ccnc(C)c3)CC2)C(=O)N(S(=O)(=O)c2ccc(OC)cn2)c2ccc(C#N)cc21 (single isomer, unassigned; (+)) ), measured log10(microsomal CLint) is 0.85

For this molecule ( CCOc1ccc(OC)cc1C1(N2CCN(c3ccncc3)CC2)C(=O)N(S(=O)(=O)c2cccc3cccnc23)c2ccc(C#N)cc21 (centres undefined) ), measured log10(microsomal CLint) is 2.23

For this molecule ( COc1ccc(S(=O)(=O)N2C(=O)C(c3ccccc3OC)(N3CCN(c4cccnc4)CC3)c3cc(Cl)ccc32)c(OC)c1 (centres undefined) ), measured log10(microsomal CLint) is 1.61
